Origin of the recorded values: the supplement of paper PMC10567573

B1: SEC22B (parent)
chain: AKQLFRKLNEQSPTRCTLEAGAMT

variants of: B1; assay: protein stability index of a GFP-peptide fusion (GPS, HEK-293T) (PSI 1-6); higher = more stable; conditions: c terminus: a fixed tail appended;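 also: lentivirally expressed fusions sorted by FACS into six bins by GFP to DsRed ratio, PSI derived from sequencing read proportions per bin multiplied by bin number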
Class Yes: protein stability index at least 2. Class No: protein stability index below 2.

{"MUTANT DESIGNATION": "R6C", "CATEGORY": "Yes"}
{"MUTANT DESIGNATION": "K2V", "CATEGORY": "No"}
{"MUTANT DESIGNATION": "T24S", "CATEGORY": "Yes"}
{"MUTANT DESIGNATION": "A22E", "CATEGORY": "Yes"}
{"MUTANT DESIGNATION": "L8Y", "CATEGORY": "No"}
{"MUTANT DESIGNATION": "F5V", "CATEGORY": "Yes"}
{"MUTANT DESIGNATION": "P13M", "CATEGORY": "No"}
{"MUTANT DESIGNATION": "R15S", "CATEGORY": "Yes"}
{"MUTANT DESIGNATION": "E19V", "CATEGORY": "No"}
{"MUTANT DESIGNATION": "N9P", "CATEGORY": "Yes"}
{"MUTANT DESIGNATION": "T14V", "CATEGORY": "Yes"}
{"MUTANT DESIGNATION": "S12E", "CATEGORY": "Yes"}
{"MUTANT DESIGNATION": "P13H", "CATEGORY": "No"}
{"MUTANT DESIGNATION": "F5S", "CATEGORY": "Yes"}
{"MUTANT DESIGNATION": "P13I", "CATEGORY": "No"}
{"MUTANT DESIGNATION": "C16F", "CATEGORY": "Yes"}
{"MUTANT DESIGNATION": "Q3F", "CATEGORY": "Yes"}
{"MUTANT DESIGNATION": "A20K", "CATEGORY": "Yes"}
{"MUTANT DESIGNATION": "S12C", "CATEGORY": "Yes"}
{"MUTANT DESIGNATION": "C16L", "CATEGORY": "Yes"}
{"MUTANT DESIGNATION": "A1I", "CATEGORY": "No"}
{"MUTANT DESIGNATION": "K2S", "CATEGORY": "Yes"}
